B1: Hairpin Ribozyme (parent)
chain: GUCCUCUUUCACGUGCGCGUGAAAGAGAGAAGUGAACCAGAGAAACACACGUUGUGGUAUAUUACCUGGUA

Variants of: B1
Test Description: self-cleavage, relative activity (ratio to wild type); higher = more cleavage; co-transcriptional
Property Measured: self-cleavage
// keep it numeric: no unit symbol after the value

Please review the entries below; each comes with its answer.
A59G G68A : 0.135
A49G U63A : 0.0688
G32C C38G : 0.0953

-- ask Could you share which self-cleavage value was measured for C4A A31G ?
-- reply 0.101

-- ask I am curious: what self-cleavage value has been reported for G29A A59G ?
-- reply 0.162

-- ask Using the record for G13U U67C , report its self-cleavage.
-- reply 0.211

-- ask Which self-cleavage value belongs to A45G C65G ?
-- reply 0.168

-- ask For the variant U33A A64U , what self-cleavage is on record?
-- reply 0.21

-- ask Which self-cleavage reading was recorded for the variant A45U U55C ?
-- reply 0.0822

-- ask Form field: reported self-cleavage of U14C C16G
-- reply 0.821

-- ask Bench note: what self-cleavage did C4U G25C show?
-- reply 0.11

Values were extracted from the RNAGym collection of RNA variant scans (doi:10.7554/elife.80360).
